The following sequences are listed with their measured TNF-α at 40 μM peptide values.
Test system: TNF-α production in LPS stimulated THP-1 cells
assayOverview: Inhibition of TNF-α production in LPS stimulated THP-1 cells (ELISA)
condition: screen 1; mean relative secretion, stimulated level without peptide = 100%, basal = 0%; 40 μM peptide, 6 h
Answer format: numeric, % implied, no suffix.

// below: answered sequences
# sequenceString, TNF-α at 40 μM peptide / %
rows = [
    ("FQWQRNMRKVRGSRRRRG [Peptide 116]", 83),
    ("FQWQRNMRKVRGPSRRRRG [Peptide 153]", 159),
    ("FQWQRNMRKVRGSRRRRG [Peptide 150]", 134),
    ("FQWKRRMRKVRGSRRRRG [Peptide 127]", 9),
    ("CFQWQRNMRKVRGPPVSCIKR [Peptide 157]", 153),
]

[Q] Fill blank: measured TNF-α at 40 μM peptide of the sequence WFQWKRAMRKVRGSRRRRG [Peptide 130] is ____.
[A] 6

[Q] # repeat for CFQWKRAMRKVRGSRRRRG [Peptide 155]
[A] 5

Reference source: patent US20130310306A1
